Subject Of Test: Integrin alpha-IIb/beta-3 (Homo sapiens, UniProt P08514+P05106)
Sequence (P05106 27-788 limits assumed): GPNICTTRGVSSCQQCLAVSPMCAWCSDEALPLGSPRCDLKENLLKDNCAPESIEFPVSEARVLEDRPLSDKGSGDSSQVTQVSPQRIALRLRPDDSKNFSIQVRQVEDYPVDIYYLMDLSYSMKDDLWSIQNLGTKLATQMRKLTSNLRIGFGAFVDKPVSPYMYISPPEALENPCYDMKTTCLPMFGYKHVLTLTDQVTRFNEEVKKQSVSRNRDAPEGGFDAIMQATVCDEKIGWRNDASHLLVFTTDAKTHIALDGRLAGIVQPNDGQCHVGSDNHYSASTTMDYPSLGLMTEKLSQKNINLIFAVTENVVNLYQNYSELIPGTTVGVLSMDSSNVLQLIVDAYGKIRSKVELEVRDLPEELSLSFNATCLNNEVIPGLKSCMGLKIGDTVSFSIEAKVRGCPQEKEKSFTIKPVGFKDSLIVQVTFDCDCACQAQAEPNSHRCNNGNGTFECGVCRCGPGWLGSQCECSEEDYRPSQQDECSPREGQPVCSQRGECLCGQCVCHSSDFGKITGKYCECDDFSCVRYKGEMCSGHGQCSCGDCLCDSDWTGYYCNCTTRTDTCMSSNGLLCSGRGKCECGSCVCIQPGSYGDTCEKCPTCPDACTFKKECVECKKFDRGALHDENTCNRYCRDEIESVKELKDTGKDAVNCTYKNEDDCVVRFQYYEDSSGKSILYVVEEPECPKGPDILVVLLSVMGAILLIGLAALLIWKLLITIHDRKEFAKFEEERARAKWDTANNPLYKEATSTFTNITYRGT
Sequence (P08514 32-887 limits assumed): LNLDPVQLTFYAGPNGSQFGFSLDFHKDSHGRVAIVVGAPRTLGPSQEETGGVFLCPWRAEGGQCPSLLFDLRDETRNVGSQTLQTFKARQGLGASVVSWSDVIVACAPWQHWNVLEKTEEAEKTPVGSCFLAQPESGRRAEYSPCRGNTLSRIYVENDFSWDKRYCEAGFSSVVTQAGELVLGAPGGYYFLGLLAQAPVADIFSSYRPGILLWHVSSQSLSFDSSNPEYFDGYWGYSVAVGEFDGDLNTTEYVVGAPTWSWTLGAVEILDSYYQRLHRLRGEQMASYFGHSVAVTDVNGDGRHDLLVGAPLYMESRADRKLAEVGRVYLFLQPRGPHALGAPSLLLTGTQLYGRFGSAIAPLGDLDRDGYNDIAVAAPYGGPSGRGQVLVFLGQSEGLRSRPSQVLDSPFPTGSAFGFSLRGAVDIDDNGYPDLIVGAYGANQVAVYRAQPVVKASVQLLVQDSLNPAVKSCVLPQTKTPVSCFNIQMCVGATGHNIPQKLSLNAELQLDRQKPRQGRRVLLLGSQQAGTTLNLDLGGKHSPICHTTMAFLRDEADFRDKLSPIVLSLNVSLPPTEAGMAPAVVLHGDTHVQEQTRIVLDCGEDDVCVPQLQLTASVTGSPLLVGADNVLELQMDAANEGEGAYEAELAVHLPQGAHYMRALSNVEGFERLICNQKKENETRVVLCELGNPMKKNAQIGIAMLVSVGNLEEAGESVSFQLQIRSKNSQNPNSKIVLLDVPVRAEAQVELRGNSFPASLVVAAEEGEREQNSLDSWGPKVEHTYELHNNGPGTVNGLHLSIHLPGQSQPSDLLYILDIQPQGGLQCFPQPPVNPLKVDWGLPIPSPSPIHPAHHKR
Sequence (P08514 891-1039 limits assumed): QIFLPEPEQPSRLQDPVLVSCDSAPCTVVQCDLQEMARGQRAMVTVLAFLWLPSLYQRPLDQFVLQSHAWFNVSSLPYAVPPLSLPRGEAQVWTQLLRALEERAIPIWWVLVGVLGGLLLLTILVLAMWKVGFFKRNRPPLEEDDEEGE
Assay Comment: In vitro inhibition of ADP-induced platelet aggregation in human platelet rich plasma (hPRP)
Result Type: IC50 (nM)

{"Compound": "CCCCOC(=O)N[C@H](CNC(=O)C[C@H]1CC(c2ccc(C(=N)N)cc2)=NO1)C(=O)O", "Result Type": "IC50", "Measurement": 27}
{"Compound": "N=C(N)c1ccc(C2=NOC(CC(=O)NC[C@H](NC(=O)OCCC(F)(F)F)C(=O)O)C2)cc1 (some centres not stated)", "Result Type": "IC50", "Measurement": 31}
{"Compound": "COC(=O)C[C@@H](CC(C)C)NC(=O)CC1CC(c2ccc(C(=N)N)cc2)=NO1 (some centres not stated)", "Result Type": "IC50", "Measurement": 50}
{"Compound": "N=C(N)c1ccc(C2=NOC(CC(=O)N[C@@H](CC(=O)O)C(=O)NCC34CC5CC(CC(C5)C3)C4)C2)cc1 (some centres not stated)", "Result Type": "IC50", "Measurement": 95}

(a) N=C(N)c1ccc(C2=NOC(CC(=O)N[C@@H](CC(=O)O)C(=O)NC3C4CC5CC(C4)CC3C5)C2)cc1 (some centres not stated)
(b) COC(=O)[C@H](CNC(=O)CC1CC(c2ccc(C(=N)N)cc2)=NO1)NC(=O)Nc1ccccc1 (some centres not stated)
(c) N=C(N)c1ccc(C2=NOC(CC(=O)NC[C@H](NC(=O)OCc3ccc(Br)cc3)C(=O)O)C2)cc1 (some centres not stated)
Put the entries in order of IC50, starting with the largest number. Sort and list the labels as requested.
a, b, c

---

Subject Of Test: Integrin alpha-IIb/beta-3 (Homo sapiens, UniProt P08514+P05106)
Assay Comment: In vitro inhibition of ADP-induced platelet aggregation in human platelet rich plasma (hPRP)
Result Type: IC50 (nM)

Please review the following examples before continuing.
{"Compound": "CCc1ccc(C(=O)N[C@@H](CNC(=O)CC2CC(c3ccc(C(=N)N)cc3)=NO2)C(=O)O)cc1 (some centres undefined)", "Units Text": "nM", "IC50": 49}
{"Compound": "O=C(CC1CC(CCC2CCNCC2)=NO1)NC[C@H](NC(=O)OCc1ccccc1)C(=O)O (some centres undefined)", "Units Text": "nM", "IC50": 210}
{"Compound": "N=C(N)c1ccc(C2=NOC(CC(=O)NC[C@H](NC(=O)NCc3ccccc3)C(=O)O)C2)cc1 (some centres undefined)", "Units Text": "nM", "IC50": 67}
{"Compound": "N=C(N)c1ccc(C2=NO[C@@H](CC(=O)N[C@@H](CC(=O)O)c3cccnc3)C2)cc1", "Units Text": "nM", "IC50": 170}
{"Compound": "CCCCOC(=O)N[C@@H](CNC(=O)CC1CC(CCCC2CCNCC2)=NO1)C(=O)O (some centres undefined)", "Units Text": "nM", "IC50": 180}

(a) N=C(N)c1ccc(C2=NOC(CC(=O)N[C@@H](CC(=O)O)C(=O)NCCc3ccccc3)C2)cc1 (some centres undefined)
(b) CCCCOC(=O)N[C@@H](CNC(=O)CC1CC(CCC2CCNCC2)=NO1)C(=O)O (some centres undefined)
// max by IC50 over [ a , b ] Answer by quoting the chosen item's label.
b

(A) CCCCOC(=O)N[C@@H](CNC(=O)CC1CC(c2ccc(N=C(N)N)cc2)=NO1)C(=O)O (some centres undefined)
(B) C=CCCOC(=O)N[C@@H](CNC(=O)CC1CC(c2ccc(C(=N)N)cc2)=NO1)C(=O)O (some centres undefined)
Problem: Given the entries A and B , determine which has the lower reported IC50. Answer by quoting the chosen item's label.
B
(B: 44 nM, A: 88 nM)

---

Subject Of Test: Integrin alpha-IIb/beta-3 (Homo sapiens, UniProt P08514+P05106)
Assay Comment: In vitro inhibition of ADP-induced platelet aggregation in human platelet rich plasma (hPRP)
pIC50: −log10 of the molar value.
Result Type: pIC50

{"Molecule": "N=C(N)c1ccc(C2=NOC(CC(=O)N[C@H](CCc3ccccn3)CC(=O)O)C2)cc1 (some centres undefined)", "pIC50": 6.74}
{"Molecule": "N=C(N)c1ccc(C2=NOC(CC(=O)NC[C@H](NC(=O)CCc3ccccc3)C(=O)O)C2)cc1 (some centres undefined)", "pIC50": 7.51}
{"Molecule": "CCCCCCOC(=O)N[C@@H](CNC(=O)CC1CC(c2ccc(C(=N)N)cc2)=NO1)C(=O)O (some centres undefined)", "pIC50": 7.39}

(A) N=C(N)c1ccc(C2=NOC(CC(=O)NC[C@H](NC(=O)OCc3ccccc3Cl)C(=O)O)C2)cc1 (some centres undefined)
(B) COC(=O)C[C@H](CN(C)C)NC(=O)CC1CC(c2ccc(C(=N)N)cc2)=NO1 (some centres undefined)
Problem: Given the entries A and B , determine which has the lower reported pIC50. Answer by quoting the chosen item's label.
B
(B: 5.15, A: 7.49)

---

Subject Of Test: Integrin alpha-IIb/beta-3 (Homo sapiens, UniProt P08514+P05106)
Assay Comment: In vitro inhibition of ADP-induced platelet aggregation in human platelet rich plasma (hPRP)
Result Type: IC50 (nM)

{"Molecule": "N=C(N)c1ccc(C2=NOC(CC(=O)NC[C@H](NC(=O)OCCc3ccccc3)C(=O)O)C2)cc1 (some centres undefined)", "IC50 [nM]": 55}

(a) N=C(N)c1ccc(C2=NOC(CC(=O)N[C@H](CCc3ccncc3)CC(=O)O)C2)cc1 (some centres undefined)
(b) N=C(N)c1ccc(C2=NOC(CC(=O)NC[C@H](NC(=O)c3ccc4ccccc4c3)C(=O)O)C2)cc1 (some centres undefined)
Problem: Given the entries a and b , determine which has the lower reported IC50. Answer by quoting the chosen item's label.
b
(b: 61 nM, a: 500 nM)

---

Subject Of Test: Integrin alpha-IIb/beta-3 (Homo sapiens, UniProt P08514+P05106)
Assay Comment: In vitro inhibition of ADP-induced platelet aggregation in human platelet rich plasma (hPRP)
pIC50: −log10 of the molar value.
Result Type: pIC50

Please review the following examples before continuing.
{"Molecule": "CC(C)OC(=O)N[C@@H](CNC(=O)CC1CC(c2ccc(C(=N)N)cc2)=NO1)C(=O)O (stereo partly specified)", "Subject Of Test": "Integrin alpha-IIb/beta-3 (Homo sapiens, UniProt P08514+P05106)", "pIC50": 6.89}
{"Molecule": "CCCCS(=O)(=O)N[C@@H](CNC(=O)CC1CC(c2ccc(C(=N)N)cc2)=NO1)C(=O)O (stereo partly specified)", "Subject Of Test": "Integrin alpha-IIb/beta-3 (Homo sapiens, UniProt P08514+P05106)", "pIC50": 7.51}
{"Molecule": "N=C(N)c1ccc(C2=NOC(CC(=O)NC[C@H](NC(=O)OCCC3CCCC3)C(=O)O)C2)cc1 (stereo partly specified)", "Subject Of Test": "Integrin alpha-IIb/beta-3 (Homo sapiens, UniProt P08514+P05106)", "pIC50": 7.49}
{"Molecule": "N=C(N)c1ccc(C2=NO[C@@H](CC(=O)NCCC(=O)O)C2)cc1", "Subject Of Test": "Integrin alpha-IIb/beta-3 (Homo sapiens, UniProt P08514+P05106)", "pIC50": 7.22}
{"Molecule": "N=C(N)c1ccc(C2=NOC(CC(=O)N[C@@H](CC(=O)O)C(=O)N3CCC4CCC(CC4)C3)C2)cc1 (stereo partly specified)", "Subject Of Test": "Integrin alpha-IIb/beta-3 (Homo sapiens, UniProt P08514+P05106)", "pIC50": 6.68}
{"Molecule": "CCCCOC(=O)N[C@@H](CNC(=O)CC1CC(C2CCNCC2)=NO1)C(=O)O (stereo partly specified)", "Subject Of Test": "Integrin alpha-IIb/beta-3 (Homo sapiens, UniProt P08514+P05106)", "pIC50": 5.20}

(a) N=C(N)c1ccc(C2=NOC(CC(=O)NC[C@H](NC(=O)c3ccc(-c4ccccc4)cc3)C(=O)O)C2)cc1 (stereo partly specified)
(b) CCCCOC(=O)N[C@@H](CNC(=O)CC1CC(CC2CCNCC2)=NO1)C(=O)O (stereo partly specified)
Problem: Given the entries a and b , determine which has the lower reported pIC50. Answer by quoting the chosen item's label.
b

---

Subject Of Test: Integrin alpha-IIb/beta-3 (Homo sapiens, UniProt P08514+P05106)
Assay Comment: In vitro inhibition of ADP-induced platelet aggregation in human platelet rich plasma (hPRP)
Result Type: IC50 (nM)

Please review the following examples before continuing.
{"Compound": "CC[C@H](CC(=O)O)NC(=O)C[C@H]1CC(c2ccc(C(=N)N)cc2)=NO1", "Units Text": "nM", "IC50": 54}
{"Compound": "CN(C[C@@H](C(=O)O)N(C)C(=O)OCc1ccccc1)C(=O)CC1CC(c2ccc(C(=N)N)cc2)=NO1 (stereo partly drawn)", "Units Text": "nM", "IC50": 570}
{"Compound": "CCCCOC(=O)N[C@@H](CN(C)C(=O)CC1CC(c2ccc(C(=N)N)cc2)=NO1)C(=O)O (stereo partly drawn)", "Units Text": "nM", "IC50": 200}
{"Compound": "COC(=O)[C@H](CN(C)C(=O)CC1CC(c2ccc(C(=N)N)cc2)=NO1)NC(=O)OCc1ccccc1 (stereo partly drawn)", "Units Text": "nM", "IC50": 160}

(A) N=C(N)c1ccc(C2=NOC(CC(=O)N[C@H](CC(=O)O)Cc3ccccc3)C2)cc1 (stereo partly drawn)
(B) CCCCN(Cc1ccccc1)C(=O)[C@H](CC(=O)O)NC(=O)CC1CC(c2ccc(C(=N)N)cc2)=NO1 (stereo partly drawn)
(C) COC(=O)CC(CN(C)C)NC(=O)CC1CC(c2ccc(C(=N)N)cc2)=NO1 (stereo not drawn)
(D) N=C(N)c1ccc(C2=NOC(CC(=O)NC[C@H](N)C(=O)O)C2)cc1 (stereo partly drawn)
Hi! Can you put these in order of IC50, lowest number first? Sort and list the labels as requested.
D, B, A, C
